- method.summary: chemical genetic growth profiling, strain panel (AID 1159580);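 also: tested at 20 µM; growth read once vehicle control cultures reached saturation at 30 °C; 1 = growth at the plate median or of vehicle wells; lower values mean less growth of the strain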
- test.parameters: S. cerevisiae deletion strains, growth OD, locus YKL009W, strain mrt4, hits give low values
In all, about 5,500 compounds went through this assay and about 2,000 (36%) were called active. Roughly 18% stayed inconclusive and do not appear here. This is one part of the list.
measured.property: normalized growth

compound: COc1cc2c(c(OC)c1OC)-c1ccc(OC)c(=O)cc1[C@@H](NC(C)=O)CC2
test.value: 1.01 (inactive)
//
compound: COC(=O)[C@]1(C)CC[C@]2(C)CC[C@]3(C)C4=CCc5c(cc(O)c(O)c5C)[C@]4(C)CC[C@@]3(C)C2C1 (stereo partly specified)
test.value: 1.03 (inactive)
//
compound: O=C(O[C@@H]1Cc2c(O)cc(O)cc2O[C@@H]1c1cc(O)c(O)c(O)c1-c1c([C@H]2Oc3cc(O)cc(O)c3C[C@H]2O)cc(O)c(O)c1O)c1cc(O)c(O)c(O)c1
test.value: 1.08 (inactive)
//
compound: CN[C@H](CC(=O)O)C(=O)O
test.value: 0.938 (inactive)
//
compound: CC(=O)O[C@H]1C[C@@H](OC(C)=O)C(C)(C)C2C[C@@H](OC(C)=O)[C@@]3(C)C4=CC(=O)O[C@@H](c5ccoc5)[C@]4(C)CCC3[C@]21C (stereo partly specified)
test.value: 0.99 (inactive)
//
compound: Nc1ccc(S(=O)(=O)Nc2ccccn2)cc1
test.value: 0.993 (inactive)
//
compound: CCCCC(CC)CN1CN(CC(CC)CCCC)CC(C)(N)C1 (stereo unspecified)
test.value: 0.939 (inactive)
//
compound: COC(=O)C[C@H]1C(C)(C)C(=O)[C@@H]2CC3=C4CC(=O)O[C@@H](c5ccoc5)[C@]4(C)CCC3[C@@]1(C)C2=O (stereo partly specified)
test.value: 0.999 (inactive)
//
compound: O=C(OC1Cc2c(O)cc(O)cc2OC1c1cc(O)c(O)c(O)c1-c1c(C2Oc3cc(O)cc(O)c3CC2OC(=O)c2cc(O)c(O)c(O)c2)cc(O)c(O)c1O)c1cc(O)c(O)c(O)c1 (stereo unspecified)
test.value: 0.953 (inactive)
//
compound: COc1ccc(C(Cl)=C(c2ccc(OC)cc2)c2ccc(OC)cc2)cc1
test.value: 1.02 (inactive)
//
compound: COc1cc(C(=O)NCc2ccc(OCCN(C)C)cc2)cc(OC)c1OC
test.value: 1.01 (inactive)
//
compound: CCN(CC)CCNC(=O)c1cc(S(C)(=O)=O)ccc1OC
test.value: 1.02 (inactive)
//
compound: Cc1occc(=O)c1O
test.value: 1.01 (inactive)
//
compound: CCC[C@H]1CC2=C(C[C@@H](CC)CC3=C1C(=O)OC3=O)C(=O)OC2=O
test.value: 0.663 (active)
//
compound: Nc1ccc(S(=O)(=O)Nc2ccc(Cl)nn2)cc1
test.value: 1.03 (inactive)
//
compound: CCOP(=S)(OCC)SCn1c(=O)oc2cc(Cl)ccc21
test.value: 0.98 (inactive)
//
compound: O=C1O[C@H](C(O)CO)C(O)=C1O (stereo partly specified)
test.value: 1.01 (inactive)
//
compound: CSCCC(NC=O)C(=O)NC(C)C(=O)O (stereo unspecified)
test.value: 0.974 (inactive)
//
compound: CN(C)CCOC(C)(c1ccccc1)c1ccccn1 (stereo unspecified)
test.value: 0.954 (inactive)
//
compound: O=[N+]([O-])c1ccc(O)c([N+](=O)[O-])c1
test.value: 0.249 (active)
//
compound: COc1cc2c(c(OC)c1OC)-c1ccc(O)c(=O)cc1[C@@H](NC(C)=O)CC2
test.value: 0.984 (inactive)
//
compound: N[C@@H](Cc1ccc(O)c(O)c1)C(=O)O
test.value: 0.961 (inactive)
//
compound: c1ccc2c3c([nH]c2c1)CNCC3
test.value: 1.01 (inactive)
//
compound: O=C(O)CCC(=O)C(=O)O
test.value: 1.05 (inactive)
//
compound: CC/C(=C(\c1ccccc1)c1ccc(OCCN(C)C)cc1)c1ccccc1
test.value: 0.79 (active)
//
compound: O=C(O)CCCCC1CCSS1 (stereo unspecified)
test.value: 0.978 (inactive)
//
compound: NCC(O)c1ccc(O)cc1 (stereo unspecified)
test.value: 1.01 (inactive)
//
compound: C1CNCCN1
test.value: 0.989 (inactive)
//
compound: CCN(CC)CCOc1ccc2c(c1)C(=O)c1cc(OCCN(CC)CC)ccc1-2
test.value: 0.973 (inactive)
//
compound: NCC(CC(=O)O)c1ccc(Cl)s1 (stereo unspecified)
test.value: 1 (inactive)
//
compound: Cc1ccc(/C(=C\CN2CCCC2)c2ccccn2)cc1
test.value: 0.996 (inactive)
//
compound: CCCCC1=NC2(CCCC2)C(=O)N1Cc1ccc(-c2ccccc2-c2nn[nH]n2)cc1
test.value: 0.952 (inactive)
//
compound: CCCCC1(COC(=O)CCC(=O)O)C(=O)N(c2ccccc2)N(c2ccccc2)C1=O
test.value: 1.03 (inactive)
//
compound: CC(C)(C)NCC(O)c1ccccc1Cl (stereo unspecified)
test.value: 0.96 (inactive)
//
compound: Cc1occc(=O)c1/C=C/O
test.value: 1.01 (inactive)
//
compound: CC(=O)Nc1cc([As](=O)(O)O)ccc1O
test.value: 0.956 (inactive)
//
compound: NC[C@H](O)c1ccc(O)c(O)c1
test.value: 1 (inactive)
//
compound: O[N+]1=CC=CCC1=S.On1ccccc1=S.[Zn]
test.value: 0.071 (active)
//
compound: O=C1C=CC2=C3c4cc(O)c(O)cc4C[C@@]3(O)COC2=C1
test.value: 1.01 (inactive)
//
compound: C/C=C/c1ccc2c(c1)OCO2
test.value: 1.02 (inactive)
//
compound: CNC[C@@H](O)c1ccc(O)c(O)c1
test.value: 0.986 (inactive)
//
compound: CCCc1occc(=O)c1/C=C/O
test.value: 1.02 (inactive)
//
compound: NCCNC(=O)c1ccc(Cl)cc1
test.value: 0.969 (inactive)
//
compound: CN1C(CC(=O)c2ccccc2)CCCC1CC(O)c1ccccc1 (stereo unspecified)
test.value: 0.994 (inactive)
//
compound: CCN(CC)CCOc1ccc(/C(=C(\Cl)c2ccccc2)c2ccccc2)cc1
test.value: 0.917 (inactive)
//
compound: CC(=O)Nc1ccc(S(=O)(=O)Nc2ccc([N+](=O)[O-])cc2)cc1
test.value: 1.09 (inactive)
